In this section, each of the molecules is paired with its reported viability, T/C.
# Test system: 521955-158-R2-J5-PDC complex spheroids, viability;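 note: spheroids also contain HUVEC endothelial cells and mesenchymal stem cells as stroma; compound exposure lasted seven days before the viability read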
# Assay Details: Anticancer human tumor 521955-158-R2-J5-PDC patient-derived pancreatic carcinoma cell line growth inhibition [RAS]
# Experimental Conditions: second compound 0.03 µM; first compound 10 µM; active compounds read low

- Molecule: "Cc1nc(N2CCC3(CC2)COC(C)C3N)c(CO)nc1Sc1ccnc(N)c1Cl (centres undefined) + CCn1c(-c2cc(N3CCN(C)CC3)cnc2C(C)OC)c2c3cc(ccc31)-c1csc(n1)CC(NC(=O)C1CC1C)C(=O)N1CCCC(N1)C(=O)OCC(C)(C)C2"
  Measurement Target: "521955-158-R2-J5-PDC complex spheroids, viability"
  viability, T/C: "11.7%"
- Molecule: "CC1(O)CCCC1n1c(=O)c(C(F)F)cc2cnc(NC3CCN(S(C)(=O)=O)CC3)nc21 (centres undefined) + CCn1c(-c2cc(N3CCN(C)CC3)cnc2C(C)OC)c2c3cc(ccc31)-c1csc(n1)CC(NC(=O)C1CC1C)C(=O)N1CCCC(N1)C(=O)OCC(C)(C)C2"
  Measurement Target: "521955-158-R2-J5-PDC complex spheroids, viability"
  viability, T/C: "6.82%"
- Molecule: "Cc1nc(N2CCC3(CC2)COC(C)C3N)c(CO)nc1Sc1ccnc(N)c1Cl (centres undefined) + CCn1c(-c2cccnc2C(C)OC)c2c3cc(ccc31)N1CCOC(CC(NC(=O)C(C(C)C)N(C)C(=O)C3(F)CCN(C(=O)C#CC(C)(C)N(C)C)CC3)C(=O)N3CCCC(N3)C(=O)OCC(C)(C)C2)C1"
  Measurement Target: "521955-158-R2-J5-PDC complex spheroids, viability"
  viability, T/C: "47%"
- Molecule: "CC(C)NCC(C(=O)N1CCN(c2ncnc3c2C(C)CC3O)CC1)c1ccc(Cl)cc1 (centres undefined) + CCn1c(-c2cccnc2C(C)OC)c2c3cc(ccc31)N1CCOC(CC(NC(=O)C(C(C)C)N(C)C(=O)C3(F)CCN(C(=O)C#CC(C)(C)N(C)C)CC3)C(=O)N3CCCC(N3)C(=O)OCC(C)(C)C2)C1"
  Measurement Target: "521955-158-R2-J5-PDC complex spheroids, viability"
  viability, T/C: "56.8%"
